Just for reference, patent US10052320B2 is where these values come from.

target: Ba/F3-FGFR1-transfected cells (Homo sapiens); experiment: Ba/F3-FGFR1 (minus IL3) cellular proliferation assay, Alamar Blue; assay type: cell-based; settings: minus IL3, 384 well
Sequence (P11362 whole entry, change not shown): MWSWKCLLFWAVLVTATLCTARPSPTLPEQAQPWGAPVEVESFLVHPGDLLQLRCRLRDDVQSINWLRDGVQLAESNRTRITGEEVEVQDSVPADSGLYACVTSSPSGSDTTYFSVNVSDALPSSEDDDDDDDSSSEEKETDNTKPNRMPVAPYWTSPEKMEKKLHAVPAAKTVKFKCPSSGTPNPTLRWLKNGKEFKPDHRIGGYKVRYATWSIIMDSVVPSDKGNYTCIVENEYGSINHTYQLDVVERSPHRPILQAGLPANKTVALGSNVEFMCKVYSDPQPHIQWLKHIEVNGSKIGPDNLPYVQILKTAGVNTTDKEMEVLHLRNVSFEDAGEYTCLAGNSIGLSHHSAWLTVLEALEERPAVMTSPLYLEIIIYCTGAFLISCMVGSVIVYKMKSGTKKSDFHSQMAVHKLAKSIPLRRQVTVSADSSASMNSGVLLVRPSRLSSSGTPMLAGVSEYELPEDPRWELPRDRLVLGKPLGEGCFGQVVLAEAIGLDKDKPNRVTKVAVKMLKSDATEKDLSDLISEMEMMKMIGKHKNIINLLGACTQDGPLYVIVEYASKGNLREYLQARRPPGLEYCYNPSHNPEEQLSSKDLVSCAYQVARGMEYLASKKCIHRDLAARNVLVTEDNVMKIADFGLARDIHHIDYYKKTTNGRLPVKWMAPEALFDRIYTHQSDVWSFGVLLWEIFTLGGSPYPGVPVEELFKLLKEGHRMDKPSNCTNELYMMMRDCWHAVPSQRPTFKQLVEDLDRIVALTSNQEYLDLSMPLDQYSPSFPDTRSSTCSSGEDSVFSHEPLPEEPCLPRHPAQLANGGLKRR
Use fulfilled when the recorded BAF3-FGFR 1 (MIN IL3) 384 well pIC50 is no lower than 6; use not fulfilled when it is lower.

These recorded examples may help you get a feel for the data.
COc1cc(OC)cc(N(CCO)c2ccc3ncc(-c4ccccc4)nc3c2)c1 | not fulfilled
COc1cc(OC)cc(N(CCO)c2ccc3ncc(C4=CCN(C(=O)OC(C)(C)C)C4)nc3c2)c1 | not fulfilled
COc1cc(OC)cc(N(CCCO)c2ccc3ncc(-c4ccc(N(C)C(=O)OC(C)(C)C)nc4)nc3c2)c1 | not fulfilled
COc1cc(OC)cc(N(CC2CC2)c2ccc3ncc(N4CCOCC4)nc3c2)c1 | not fulfilled
COc1cc(OC)cc(N(CCCO)c2ccc3ncc(-c4ccnc(C(=O)NCCCN)c4)nc3c2)c1 | not fulfilled
COc1cc(OC)cc(N(CCCNCC(F)(F)F)c2ccc3ncc(-c4ccnc(Cl)c4)nc3c2)c1 | not fulfilled
COCC(O)CN(c1cc(OC)cc(OC)c1)c1ccc2ncc(-c3cccnc3)nc2c1 (single isomer, unassigned) [Compound 46] | fulfilled
COc1cc(OC)cc(N(CC2CC2)c2ccc3ncc(-c4nccn4C)nc3c2)c1 | not fulfilled
COCC(O)CN(c1cc(OC)cc(OC)c1)c1ccc2ncc(-c3cccnc3)nc2c1 (single isomer, unassigned) [Compound 47] | fulfilled
COc1cc(OC)cc(N(CC2CC2)c2ccc3ncc(C#Cc4cncn4C)nc3c2)c1 | not fulfilled

query: Identify whether the reported BAF3-FGFR 1 (MIN IL3) 384 well pIC50 of the following molecule is 6 or greater: COc1cc(OC)cc(N(CCNC(C)C)c2ccc3ncc(-c4ccc(N)nc4)nc3c2)c1
result: fulfilled

query: Same for COc1cc(OC)cc(N(CCNC(C)C)c2ccc3ncc(-n4cnc(CO)c4)nc3c2)c1
result: fulfilled

query: Same for COc1cc(OC)cc(N(CCO)c2ccc3ncc(C(=O)Nc4cnn(C)c4)nc3c2)c1
result: not fulfilled

query: Same for COc1cc(OC)cc(N(CCO)c2ccc3ncc(-c4ccnc(C(=O)NCCCCCN)c4)nc3c2)c1
result: not fulfilled

query: Same for COc1cc(OC)cc(N(CCN2CCOCC2)c2ccc3ncc(-c4ccc(N)nc4)nc3c2)c1
result: fulfilled

---

target: FGFR2 (h) (Homo sapiens); test: FGFR2 (enzymatic assay), TR-FRET; type: biochemical; details: read-out: FGFR 2 pIC50 (converted)
Sequence (P21802 22-821): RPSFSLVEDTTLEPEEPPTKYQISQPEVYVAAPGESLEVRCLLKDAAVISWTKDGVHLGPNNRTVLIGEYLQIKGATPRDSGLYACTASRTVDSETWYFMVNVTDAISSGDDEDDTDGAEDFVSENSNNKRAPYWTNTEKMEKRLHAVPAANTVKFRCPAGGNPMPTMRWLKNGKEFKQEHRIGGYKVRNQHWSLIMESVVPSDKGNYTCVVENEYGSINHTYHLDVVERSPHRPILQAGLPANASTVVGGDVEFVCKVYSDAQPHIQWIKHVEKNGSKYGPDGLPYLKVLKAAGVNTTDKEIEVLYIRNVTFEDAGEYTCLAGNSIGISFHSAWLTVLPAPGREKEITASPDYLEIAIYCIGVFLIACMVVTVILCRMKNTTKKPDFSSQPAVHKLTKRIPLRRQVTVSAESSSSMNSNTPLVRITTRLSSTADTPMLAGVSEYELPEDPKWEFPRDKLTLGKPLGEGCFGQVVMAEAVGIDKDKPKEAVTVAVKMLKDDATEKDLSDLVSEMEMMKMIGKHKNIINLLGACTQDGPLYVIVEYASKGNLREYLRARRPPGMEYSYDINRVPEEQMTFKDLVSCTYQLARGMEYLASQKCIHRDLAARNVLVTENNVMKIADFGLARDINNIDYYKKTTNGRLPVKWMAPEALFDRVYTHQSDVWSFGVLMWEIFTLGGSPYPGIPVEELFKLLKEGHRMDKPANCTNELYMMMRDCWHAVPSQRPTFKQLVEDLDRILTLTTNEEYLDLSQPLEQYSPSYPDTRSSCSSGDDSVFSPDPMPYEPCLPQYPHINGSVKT
readout.name: IC50
Please answer in the form of a number followed by its unit of measurement.

COc1cc(OC)cc(N(CCO)c2ccc3ncc(-c4cccnc4)nc3c2)c1 | 17 nM
COc1cc(OC)cc(N(CCCO)c2ccc3ncc(-c4ccnc(C(=O)NCCCCCN)c4)nc3c2)c1 | 8.32 nM
COc1cc(OC)cc(N(CCNC(C)C)c2ccc3ncc(-c4ccnc(C(=O)NCCCN)c4)nc3c2)c1 | 8.13 nM
COc1cc(OC)cc(N(CCO)c2ccc3ncc(-c4ccc(N5CCNCC5)nc4)nc3c2)c1 | 12.6 nM
COc1cc(OC)cc(N(CCNC(C)C)c2ccc3ncc(-c4ccccc4)nc3c2)c1 | 3.72 nM

query: Given the compound COc1cc(OC)cc(N(CC2CC2)c2ccc3ncc(-c4cccc(N5CCOCC5)c4)nc3c2)c1 , what is its reported IC50?
result: 661 nM

query: Same for COc1cc(OC)cc(N(Cc2cccc(CN)n2)c2ccc3ncc(-c4ccc(N)nc4)nc3c2)c1
result: 8.91 nM

query: Same for COc1cc(OC)cc(N(CCNC(C)C)c2ccc3ncc(C(=O)N4CCOCC4)nc3c2)c1
result: 490 nM
